Assay: Components of the Cytosolic LPS Sensing Pathway: Gene Identification via Genome-wide siRNA Screen;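 also: robust z of the log signal after scaling to non-targeting control siRNA wells of the plate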
Settings: RAW264.7 macrophages, IL-1a HTRF, actives lie on both sides, screened at 100 nM (by protocol), cells primed 5 h with Pam3CSK4 first
Screen size: about 53,000 sequences; about 3,700 (7%) were called active.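 The calls were made as follows: active = gene knockdowns whose robust z-score for IL-1 alpha signal is at least 2 or at most -2, so actives lie on both sides; inactive = the rest.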 The sample as a whole holds a higher share of actives than the screen did.
Please answer using one outcome listed in active, inactive

Kindly provide the recorded test outcome for the following sequence: GGUACAAUGGCACUGUCACTT against Chrna5
inactive

# outcome recorded in this test, key = CGACUCUUGCCUGUUCGUGTT against Adamtsl5
active

// outcome(item) with item = UAUGACUCCACUCUUCUCUTT against Olfr1158
active

// param item: GCUGAUCCACGACUACUUGTT against Rab10os ; yields the recorded call
inactive

Please share the test call associated with GCACUAUGGGUGUCAUGGUTT against Mon1a .
active

Just curious, what result did GGACAAAGAAAAAGAUUCCTT against Stxbp6 get here?
inactive

Outcome? GCUAGGACUACAGCUGGGATT against Snrnp48
active

Dear colleague, could you share the recorded outcome for GGAAUGGUUUGGUGAGUUUTT against Pramel1 when you have a moment?
inactive

Tell me the recorded outcome of this test for GGAGGUUGCUACAUGGUUATT against Amz1 .
inactive

Identify the outcome logged in this assay for the sequence shown: GGACUUCAAGGAUAGUGAGTT against Osm
inactive

For this sequence, state the assay outcome: GGAUUUCUUCUUAUGAUGATT against Khnyn
inactive

What call does the record list for GGCUACUCGGCCCUCUGUUTT against 4930404N11Rik ?
inactive

---

Experiment: Components of the Cytosolic LPS Sensing Pathway: Gene Identification via Genome-wide siRNA Screen;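 also: robust z of the log signal after scaling to non-targeting control siRNA wells of the plate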
Settings: RAW264.7 macrophages, IL-1a HTRF, actives lie on both sides, screened at 100 nM (by protocol), cells primed 5 h with Pam3CSK4 first
Out of some 53,000 sequences screened, about 3,700 (7%) were called active. The entries come from a sample that favours actives as a whole.
Classes (z-score): low end (below -0.8), middle (-0.8 to below 0.1), high end (0.1 or more)

Pick a category. Item: GGUGAUCAAGGACAUUUAATT against Psma5
middle

Please let me know in which category the item CGACCAGAGUGGAUACCUGTT against Ocm belongs.
high end

Into which category would you place CCUAAAAGACUUUGGAGACTT against Arg2 ?
low end

Quick check: band for GCUAGUGACUUUGAGAUUGTT against Msh5
middle

Lab note: sort CCAAUUUCCUUUCAGACUGTT against Cxxc4 into the matching z-score band.
low end

Lab note: sort GGACAGCGACAAGAUUCCGTT against Sox4 into the matching z-score band.
middle

Into which bin does this sequence go? GCCUAUUGUCAGAAAAGUUTT against Usp4
middle

Band for the recorded z-score of GGACCACAACACAAAUCUGTT against Fasl ?
high end

Given GGCAUGUUUCUUGACUUAATT against Coil , name the class its z-score places it in.
high end

For GGUGCCAUUCAUCUUUCAATT against Tmprss3 , which z-score bin applies?
high end

---

Assay: Components of the Cytosolic LPS Sensing Pathway: Gene Identification via Genome-wide siRNA Screen;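 also: robust z of the log signal after scaling to non-targeting control siRNA wells of the plate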
Details: RAW264.7 macrophages, IL-1a HTRF, actives lie on both sides, screened at 100 nM (by protocol), cells primed 5 h with Pam3CSK4 first
The campaign covered roughly 53,000 sequences. About 3,700 (7%) were called active. The sample as a whole holds a higher share of actives than the screen did.
I'd appreciate it if you could supply z-score values for the items below.
Enter the number alone.

The measured z-score associated with GGAAAACACGUUCACUAUATT against Elp2 reads 0.021

// z-score lookup, sequence = GGGCCAGACUCCAUACUAUTT against Arid1a , result: 3.71

In plain terms, GGCCAUACGCAAGCUCAAGTT against Rtl5 has a documented z-score of -2.96

Value of z-score reported for the sequence GGGCAAAAUAUGAAAUACATT against Pate6 is 2.92

Entry under test: GGUAUUGAGUAUCUUAGGUTT against Atf7 . Its z-score was -0.543

The recorded z-score for entry CCAACUUUCUCUUAGGAAATT against Igfl3 equals -0.487

Values from PubChem BioAssay AID1508600
